- assay: 1H NMRD profiles (water proton relaxivity)
- Assay type: physicochemical
- applied conditions: 25° C., pH 6.9, fits of NMRD profile and 17O NMR
- Description: Measuring the relaxation rates of an abundant nuclear species as a function of the magnetic field over a wide range is called relaxometry. A relaxometry profile is a plot of the nuclear magnetic relaxation rate, usually 1/T1, as a function of the Larmor frequency or the magnetic field. […] With the help of NMRD profiles, ^17O NMR measurements, and the Soloman-Bloemnergen-Morgan theory, several important parameters, such as TM, TR, TV, Δ^2 and rH, can be measured. […]

compound: O=C([O-])CN(CCN(CC(=O)[O-])CC(=O)O)CCN(CC(=O)[O-])CC(=O)O.[Gd+3] [Gd-DTPA, reference compound]
u: ps
TR: 73
//
compound: O=C([O-])CN1CCN(CC(=O)[O-])CCN(CC(=O)N2CCOCCOCCN(Cc3ccc4ccccc4n3)CCOCCOCC2)CCN(CC(=O)[O-])CC1.[Gd+3] [GdL3, Gd^3+ complex of L3]
u: ps
TR: 210
//
compound: O=C([O-])CN1CCN(CC(=O)[O-])CCN(CC(=O)O)CCN(CC(=O)[O-])CC1.[Gd+3] [Gd-DOTA, reference compound]
u: ps
TR: 73
//
compound: O=C([O-])CN1CCN(CCOCC2COCCOCCOCCOCCO2)CCN(CC(=O)[O-])CCN(CC(=O)[O-])CC1.[Gd+3] (stereo not drawn) [GdL2, Gd^3+ complex of L2]
u: ps
TR: 140
//
compound: O=C([O-])CN1CCN(CCN2CCOCCOCCOCCOCC2)CCN(CC(=O)[O-])CCN(CC(=O)[O-])CC1.[Gd+3] [GdL1, Gd^3+ Complex of L1]
u: ps
TR: 146
//
compound: O=C([O-])CN1CCNCCN(CC(=O)[O-])CCN(CC(=O)[O-])CC1.[Gd+3] [Gd-DO3A, reference compound]
u: ps
TR: 66

* * *

Catalogue of molecules with associated a
- assay: 1H NMRD profiles (water proton relaxivity)
- Type: physicochemical
- applied conditions: 25° C., pH 6.9, fits of NMRD profile and 17O NMR
measurement kind: a

molecule: O=C([O-])CN1CCN(CCN2CCOCCOCCOCCOCC2)CCN(CC(=O)[O-])CCN(CC(=O)[O-])CC1.[Gd+3]
assay value: 4.0 Å
//
molecule: O=C([O-])CN1CCNCCN(CC(=O)[O-])CCN(CC(=O)[O-])CC1.[Gd+3] [Gd-DO3A, reference compound]
assay value: 3.9 Å
//
molecule: O=C([O-])CN1CCN(CCOCC2COCCOCCOCCOCCO2)CCN(CC(=O)[O-])CCN(CC(=O)[O-])CC1.[Gd+3] (stereo not drawn)
assay value: 4.0 Å

* * *

- assay: Variable-temperature 17O NMR transverse relaxation rate
- Type: physicochemical
- applied conditions: 25° C., pH 6.9, derived from VT 17O NMR spectroscopy
Catalogue of compounds with associated TM
measurement kind: TM (ns)

compound: O=C([O-])CN1CCN(CCN2CCOCCOCCOCCOCC2)CCN(CC(=O)[O-])CCN(CC(=O)[O-])CC1.[Gd+3]
measurement kind: TM
u: ns
assay value: 55
//
compound: O=C([O-])CN1CCN(CCOCC2COCCOCCOCCOCCO2)CCN(CC(=O)[O-])CCN(CC(=O)[O-])CC1.[Gd+3] (stereo not drawn)
measurement kind: TM
u: ns
assay value: 116
//
compound: O=C([O-])CN1CCNCCN(CC(=O)[O-])CCN(CC(=O)[O-])CC1.[Gd+3] [Gd-DO3A, reference compound]
measurement kind: TM
u: ns
assay value: 160
//
compound: O=C([O-])CN1CCN(CC(=O)[O-])CCN(CC(=O)N2CCOCCOCCN(Cc3ccc4ccccc4n3)CCOCCOCC2)CCN(CC(=O)[O-])CC1.[Gd+3]
measurement kind: TM
u: ns
assay value: 246
//
compound: O=C([O-])CN(CCN(CC(=O)[O-])CC(=O)O)CCN(CC(=O)[O-])CC(=O)O.[Gd+3] [Gd-DTPA, reference compound]
measurement kind: TM
u: ns
assay value: 250
//
compound: O=C([O-])CN1CCN(CC(=O)[O-])CCN(CC(=O)O)CCN(CC(=O)[O-])CC1.[Gd+3] [Gd-DOTA, reference compound]
measurement kind: TM
u: ns
assay value: 300

* * *

- assay: 1H NMRD profiles (water proton relaxivity)
- Type: physicochemical
- applied conditions: 25° C., pH 6.9, fits of NMRD profile and 17O NMR

molecule: O=C([O-])CN1CCNCCN(CC(=O)[O-])CCN(CC(=O)[O-])CC1.[Gd+3] [Gd-DO3A, reference compound]
r, Å: 3.15
//
molecule: O=C([O-])CN1CCN(CC(=O)[O-])CCN(CC(=O)O)CCN(CC(=O)[O-])CC1.[Gd+3] [Gd-DOTA, reference compound]
r, Å: 3.1
//
molecule: O=C([O-])CN1CCN(CCOCC2COCCOCCOCCOCCO2)CCN(CC(=O)[O-])CCN(CC(=O)[O-])CC1.[Gd+3] (stereo not drawn)
r, Å: 2.97

* * *

- assay: Luminescence lifetime measurements for inner-sphere water molecules q (Tb complexes)
- Format: physicochemical
- applied conditions: pH 6.9 (0.1 M Tris/HCl), 298 K, ±10%, title names H2O and D2O
Catalogue of compounds with associated kH2O (Table 1), absolute emission depopulation rate constant
measurement kind: kH2O (Table 1), absolute emission depopulation rate constant (ms^−1)

compound: O=C([O-])CN1CCNCCN(CC(=O)[O-])CCN(CC(=O)[O-])CC1.[Tb+3] [Tb-DO3A, reference compound]
assay value: 0.42

compound: O=C([O-])CN1CCN(CCN2CCOCCOCCOCCOCC2)CCN(CC(=O)[O-])CCN(CC(=O)[O-])CC1.[Tb+3]
assay value: 0.34

compound: O=C([O-])CN1CCN(CC(=O)[O-])CCN(CC(=O)N2CCOCCOCCN(Cc3ccc4ccccc4n3)CCOCCOCC2)CCN(CC(=O)[O-])CC1.[Tb+3]
assay value: 0.31

compound: O=C([O-])CN1CCN(CC(=O)[O-])CCN(CC(=O)[O-])CCN(CC(=O)[O-])CC1.[Tb+3] [Tb-DOTA, reference compound]
assay value: 0.27

compound: O=C([O-])CN1CCN(CCOCC2COCCOCCOCCOCCO2)CCN(CC(=O)[O-])CCN(CC(=O)[O-])CC1.[Tb+3] (centres unmarked)
assay value: 0.35

* * *

- assay: Luminescence lifetime measurements for inner-sphere water molecules q (Tb complexes)
- Type: physicochemical
- applied conditions: pH 6.9 (0.1 M Tris/HCl), 298 K; q^Tb = 5 (1/τH2O - 1/τD2O-0.06)
Catalogue of molecules with associated q, hydration state
measurement kind: q, hydration state

molecule: O=C([O-])CN1CCNCCN(CC(=O)[O-])CCN(CC(=O)[O-])CC1.[Tb+3] [Tb-DO3A, reference compound]
measurement kind: q, hydration state
assay value: 2.0
--
molecule: O=C([O-])CN1CCN(CCN2CCOCCOCCOCCOCC2)CCN(CC(=O)[O-])CCN(CC(=O)[O-])CC1.[Tb+3]
measurement kind: q, hydration state
assay value: 1.6
--
molecule: O=C([O-])CN1CCN(CC(=O)[O-])CCN(CC(=O)N2CCOCCOCCN(Cc3ccc4ccccc4n3)CCOCCOCC2)CCN(CC(=O)[O-])CC1.[Tb+3]
measurement kind: q, hydration state
assay value: 0.7
--
molecule: O=C([O-])CN1CCN(CCOCC2COCCOCCOCCOCCO2)CCN(CC(=O)[O-])CCN(CC(=O)[O-])CC1.[Tb+3] (centres unmarked)
measurement kind: q, hydration state
assay value: 1.7
--
molecule: O=C([O-])CN1CCN(CC(=O)[O-])CCN(CC(=O)[O-])CCN(CC(=O)[O-])CC1.[Tb+3] [Tb-DOTA, reference compound]
measurement kind: q, hydration state
assay value: 0.8

* * *

- assay: Variable-temperature 17O NMR transverse relaxation rate
- Format: physicochemical
- applied conditions: 25° C.

molecule: O=C([O-])CN1CCN(CC(=O)[O-])CCN(CC(=O)O)CCN(CC(=O)[O-])CC1.[Gd+3] [Gd-DOTA, reference compound]
u: s⁻¹
water exchange rate kex^298: 4.1e+06
//
molecule: O=C([O-])CN1CCN(CCOCC2COCCOCCOCCOCCO2)CCN(CC(=O)[O-])CCN(CC(=O)[O-])CC1.[Gd+3] (stereo not shown) [GdL2, Gd^3+ complex of L2]
u: s⁻¹
water exchange rate kex^298: 8.62e+06
//
molecule: O=C([O-])CN1CCNCCN(CC(=O)[O-])CCN(CC(=O)[O-])CC1.[Gd+3] [Gd-DO3A, reference compound]
u: s⁻¹
water exchange rate kex^298: 6.3e+06
//
molecule: O=C([O-])CN1CCN(CCN2CCOCCOCCOCCOCC2)CCN(CC(=O)[O-])CCN(CC(=O)[O-])CC1.[Gd+3] [GdL1, Gd^3+ Complex of L1]
u: s⁻¹
water exchange rate kex^298: 1.82e+07
